# PROCEDURE TEXT: Liver microsomal metabolic stability, human liver microsomes (HLM)
# RUN PARAMETERS: human, liver microsomes
READOUT LABEL: half-life at 1 μM

| COMPOUND | READOUT LABEL | RESULT VALUE |
| --- | --- | --- |
| COc1ncnc(C2CC2)c1-c1cc2n(n1)CCC(=O)N2Cc1ccc(-c2nc(C(F)(F)F)cn2C)c(F)c1 [Example 2] | half-life at 1 μM | > 25 min |
| Cc1cnn(C(C)C)c1-c1cc2n(n1)CCC(=O)N2Cc1ccc(-n2nc(C(F)(F)F)cc2C)cc1 [Example 10] | half-life at 1 μM | < 25 min |
| Cc1cnn(C(C)C)c1-c1cc2n(n1)CCCN2Cc1ccc(-c2nc(C(F)(F)F)cn2C)c(F)c1 [Example 55] | half-life at 1 μM | < 25 min |
| CC(C)n1cc(C(F)(F)F)nc1-c1ccc(CN2C(=O)CCn3nc(-c4c(Cl)cnn4C(C)C)nc32)cc1F [Example 40] | half-life at 1 μM | > 25 min |
| COc1cc(CN2C(=O)CCn3nc(-c4c(Cl)cnn4C(C)C)nc32)ccc1-c1nc(C(F)(F)F)cn1C(C)C [Example 165] | half-life at 1 μM | > 25 min |
| CC(C)n1ncc(Cl)c1-c1cc2n(n1)CCCN2Cc1ccc(-c2nc(C(F)(F)F)cn2CCF)cc1 [Example 62] | half-life at 1 μM | < 25 min |
| CCn1cc(C(F)(F)F)nc1-c1ccc(N[C@@H]2CCCn3nc(-c4c(Cl)cnn4[C@H](C)CF)cc32)cc1 (single isomer, unassigned) [Example 323] | half-life at 1 μM | > 25 min |
| CCn1cc(C(F)(F)F)nc1-c1ccc(NC2CCCn3nc(-c4c(Cl)cnn4C(C)C)cc32)cc1 (centres unmarked) [Example 237] | half-life at 1 μM | > 25 min |
| CCn1cc(C(F)(F)F)nc1-c1ccc(CC2c3cc(-c4c(OC)ncnc4C4CC4)nn3CCN2C)cc1 (centres unmarked) [Example 362] | half-life at 1 μM | < 25 min |
| CCn1cc(C(F)(F)F)nc1-c1ccc(CN2C(=O)CCn3nc(-c4c(Cl)cnn4C(C)C)cc32)cc1 [Example 97] | half-life at 1 μM | > 25 min |
| COc1c(CN2C(=O)CCn3nc(-c4c(Cl)cnn4C(C)C)nc32)ccc(-c2nc(C(F)(F)F)cn2C(C)C)c1F [Example 216] | half-life at 1 μM | > 25 min |

----------
Recorded IC50 by entry
# TARGET: USP1/UAF1 enzyme (Homo sapiens, UniProt O94782)
# Sequence (O94782 whole entry): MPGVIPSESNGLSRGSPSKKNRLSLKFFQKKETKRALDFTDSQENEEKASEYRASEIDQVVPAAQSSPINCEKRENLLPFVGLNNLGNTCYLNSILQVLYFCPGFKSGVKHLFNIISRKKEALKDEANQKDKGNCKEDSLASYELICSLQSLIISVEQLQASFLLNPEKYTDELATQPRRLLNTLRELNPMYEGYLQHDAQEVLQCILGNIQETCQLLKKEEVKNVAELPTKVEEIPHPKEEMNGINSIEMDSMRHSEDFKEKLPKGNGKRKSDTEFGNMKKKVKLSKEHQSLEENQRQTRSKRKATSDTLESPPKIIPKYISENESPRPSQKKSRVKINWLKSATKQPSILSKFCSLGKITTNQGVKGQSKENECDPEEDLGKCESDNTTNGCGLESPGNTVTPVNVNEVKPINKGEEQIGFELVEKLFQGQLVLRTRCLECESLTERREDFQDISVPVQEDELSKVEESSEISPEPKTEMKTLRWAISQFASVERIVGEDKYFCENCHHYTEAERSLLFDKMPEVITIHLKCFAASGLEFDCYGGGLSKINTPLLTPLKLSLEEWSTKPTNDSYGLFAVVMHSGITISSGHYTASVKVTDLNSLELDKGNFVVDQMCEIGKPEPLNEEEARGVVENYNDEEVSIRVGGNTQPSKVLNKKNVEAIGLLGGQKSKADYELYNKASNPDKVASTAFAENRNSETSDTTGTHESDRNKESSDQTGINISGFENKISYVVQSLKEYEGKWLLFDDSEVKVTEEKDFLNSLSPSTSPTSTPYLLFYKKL
# Sequence (Q8TAF3 whole entry partner): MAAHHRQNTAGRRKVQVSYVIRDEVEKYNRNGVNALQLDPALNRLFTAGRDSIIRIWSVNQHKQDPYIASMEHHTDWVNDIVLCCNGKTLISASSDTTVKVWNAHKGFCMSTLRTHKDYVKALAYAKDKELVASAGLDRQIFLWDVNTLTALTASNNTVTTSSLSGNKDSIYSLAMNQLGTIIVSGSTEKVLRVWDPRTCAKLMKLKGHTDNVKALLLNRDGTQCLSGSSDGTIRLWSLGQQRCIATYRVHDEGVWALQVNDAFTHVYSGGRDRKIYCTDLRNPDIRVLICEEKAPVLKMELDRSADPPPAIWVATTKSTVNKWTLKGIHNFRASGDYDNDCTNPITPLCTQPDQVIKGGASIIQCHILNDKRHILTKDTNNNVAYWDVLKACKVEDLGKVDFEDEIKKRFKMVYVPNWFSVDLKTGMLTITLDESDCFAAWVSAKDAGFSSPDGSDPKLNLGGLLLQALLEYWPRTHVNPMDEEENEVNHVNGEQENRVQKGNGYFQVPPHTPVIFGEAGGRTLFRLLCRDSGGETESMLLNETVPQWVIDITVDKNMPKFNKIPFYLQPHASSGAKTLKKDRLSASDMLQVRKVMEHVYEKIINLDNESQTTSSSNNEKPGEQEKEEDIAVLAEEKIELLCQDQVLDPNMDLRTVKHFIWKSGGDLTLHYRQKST
# PROCEDURE TEXT: USP1/UAF1 deubiquitination assay (ubiquitin-rhodamine 110 substrate)
# RUN PARAMETERS: read-out: USP1 IC50 (Ub-Rho)
READOUT LABEL: IC50

| MOLECULE | RESULT VALUE |
| --- | --- |
| CCn1cc(C(F)(F)F)nc1-c1ccc(NC2CCCn3nc(-c4c(Cl)cnn4C(C)C)cc32)cc1C#N (stereo not drawn) [Example 255] | < 100 nM |
| COc1cccnc1-c1ccc(N[C@@H]2CCCn3nc(-c4c(OC)ncnc4C4CC4)cc32)cc1F (single isomer, unassigned) [Example 251] | > 500 nM |
| CCn1cc(C(F)(F)F)nc1-c1ccc(NC2c3cc(-c4c(Cl)cnn4C(C)C)nn3CCC2(C)C)cc1 (stereo not drawn) [Example 352] | < 100 nM |
| COc1ncnc(C2CC2)c1-c1nc2n(n1)CCC(=O)N2[C@H](C)c1ccc(-c2nc(C(F)(F)F)c(Br)n2C)cc1 [Example 206] | < 100 nM |
| CCn1cc(C(F)(F)F)nc1-c1ccc([C@H](C)N2CCCn3nc(-c4c(Cl)cnn4C(C)C)cc32)cc1 (single isomer, unassigned) [Example 67] | < 100 nM |
| CCn1cc(C(F)(F)F)nc1-c1ccc(Cn2c(=O)ccn3nc(-c4c(OC)ncnc4C4CC4)cc23)cc1 [Example 332] | < 100 nM |
| COc1cccnc1-c1ccc(N[C@H]2CCCn3nc(-c4c(OC)ncnc4C4CC4)cc32)cc1Cl (single isomer, unassigned) [Example 254] | 100 to 500 nM |
| CCn1cc(C(F)(F)F)nc1-c1ccc(CN2C(=O)CCn3nc(-c4c(Cl)cnn4CCO)cc32)cc1F [Example 163] | 100 to 500 nM |
| COc1ncnc(C2CC2)c1-c1nc2n(n1)CCC(=O)N2C(C)c1ccc(-c2nc(C(F)(F)F)cn2C(C)C)c(F)c1OC (stereo not drawn) [Example 218] | 100 to 500 nM |
